Source listed as the supplement of paper PMC11619387.

System: Pseudomonas aeruginosa PAO1-Xen41
Experiment: EC50 of growth/kill rate concentration-effect curve
Details: medium (conditioned by secondary species or non-conditioned control): C. albicans
# strict inequality: EC50 < 2 µg/mL yields met, everything else yields not met

compound	test-system	discrete-label
C[C@H]1[C@H](NC(=O)/C(=N\OC(C)(C)C(=O)O)c2csc(N)n2)C(=O)N1S(=O)(=O)O	Pseudomonas aeruginosa PAO1-Xen41	not met
CO[C@H]1/C=C/O[C@@]2(C)Oc3c(C)c(O)c4c(O)c(c(/C=N/N5CCN(C)CC5)c(O)c4c3C2=O)NC(=O)/C(C)=C\C=C\[C@H](C)[C@H](O)[C@@H](C)[C@@H](O)[C@@H](C)[C@H](OC(C)=O)[C@@H]1C	Pseudomonas aeruginosa PAO1-Xen41	not met
CN(C)c1ccc(O)c2c1C[C@H]1C[C@H]3[C@H](N(C)C)C(O)=C(C(N)=O)C(=O)[C@@]3(O)C(O)=C1C2=O	Pseudomonas aeruginosa PAO1-Xen41	not met
O=C(O)c1cn(C2CC2)c2cc(N3CCNCC3)c(F)cc2c1=O	Pseudomonas aeruginosa PAO1-Xen41	met
C[C@@H](O)[C@H]1C(=O)N2C(C(=O)O)=C(S[C@@H]3CN[C@H](C(=O)N(C)C)C3)[C@H](C)[C@H]12	Pseudomonas aeruginosa PAO1-Xen41	met
CCC(C)CCCC(=O)N[C@@H](CCN)C(=O)N[C@H](C(=O)N[C@@H](CCN)C(=O)N[C@H]1CCNC(=O)[C@H]([C@@H](C)O)NC(=O)[C@H](CCN)NC(=O)[C@H](CCN)NC(=O)[C@H](CC(C)C)NC(=O)[C@@H](CC(C)C)NC(=O)[C@H](CCN)NC1=O)[C@@H](C)O (some centres undefined)	Pseudomonas aeruginosa PAO1-Xen41	met
NC[C@H]1O[C@H](O[C@H]2[C@H](O)[C@@H](O[C@H]3O[C@H](CO)[C@@H](O)[C@H](N)[C@H]3O)[C@H](N)C[C@@H]2N)[C@H](N)C[C@@H]1O	Pseudomonas aeruginosa PAO1-Xen41	met
C[C@@H]1O[C@@H]1P(=O)(O)O	Pseudomonas aeruginosa PAO1-Xen41	not met
